experimentalSystem: CYP2D6 (Homo sapiens, UniProt P10635)
Sequence (P10635 whole entry): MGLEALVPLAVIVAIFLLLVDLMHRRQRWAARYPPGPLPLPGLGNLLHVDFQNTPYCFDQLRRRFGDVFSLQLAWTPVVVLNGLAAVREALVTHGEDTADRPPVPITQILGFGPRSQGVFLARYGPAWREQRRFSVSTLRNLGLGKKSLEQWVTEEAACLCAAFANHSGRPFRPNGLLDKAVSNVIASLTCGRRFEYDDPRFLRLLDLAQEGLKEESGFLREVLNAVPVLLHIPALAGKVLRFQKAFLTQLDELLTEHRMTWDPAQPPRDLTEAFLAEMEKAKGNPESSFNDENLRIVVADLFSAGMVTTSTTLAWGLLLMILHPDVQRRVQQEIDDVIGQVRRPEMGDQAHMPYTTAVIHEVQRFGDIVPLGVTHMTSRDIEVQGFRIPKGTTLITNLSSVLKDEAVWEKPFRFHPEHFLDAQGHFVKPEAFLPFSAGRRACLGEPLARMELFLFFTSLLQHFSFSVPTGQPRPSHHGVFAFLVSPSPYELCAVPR
assayExplanation: Inhibition of CYP2D6 in human liver microsomes assessed as dextromethorphan O-demethylation by LC-MS/MS analysis
Type: ADME, Microsome
recordedConditions: human, liver microsomes, probe dextromethorphan (O-demethylation)
measuredAttribute: IC50

Find the recorded IC50 belonging to "O=C(O)Cn1c2c(c3ccccc31)CN(C(=O)c1ccccc1)CC2" and report it.
> 50 µM

----------
experimentalSystem: Prostaglandin D2 receptor 2 (Homo sapiens)
Sequence (Q9Y5Y4 whole entry): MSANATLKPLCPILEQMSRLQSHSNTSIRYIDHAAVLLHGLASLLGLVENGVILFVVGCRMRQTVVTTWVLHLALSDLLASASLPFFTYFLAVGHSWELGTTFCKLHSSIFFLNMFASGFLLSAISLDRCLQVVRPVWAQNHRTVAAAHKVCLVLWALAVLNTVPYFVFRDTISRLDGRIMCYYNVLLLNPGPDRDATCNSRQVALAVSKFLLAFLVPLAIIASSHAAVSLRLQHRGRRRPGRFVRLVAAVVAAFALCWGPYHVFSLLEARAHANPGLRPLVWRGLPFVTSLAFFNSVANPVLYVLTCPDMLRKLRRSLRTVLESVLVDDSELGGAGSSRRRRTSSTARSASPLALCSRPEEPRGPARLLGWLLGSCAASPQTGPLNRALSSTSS
assayExplanation: Displacement of [3H]PGD2 from recombinant human CRTH2 receptor expressed in HEK293 cell membranes after 90 mins by scintillation counting analysis in presence of human serum albumin
// assign condition met if IC50 falls strictly below 0.06 µM, else condition not met (ties count as condition not met)

INSERT INTO measurements (smilesstructure, categorylabel) VALUES
  ('O=C(O)Cn1c2c(c3cc(Cl)ccc31)CN(C(=O)c1cccc3ccccc13)CC2', 'condition not met'),
  ('O=C(O)Cn1c2c(c3cc(C(F)(F)F)ccc31)CN(C(=O)c1cccc3ccccc13)CC2', 'condition not met'),
  ('CCc1ccc(-c2ccc(C(=O)N3CCc4c(c5cccc(Cl)c5n4CC(=O)O)C3)cc2)cc1', 'condition not met');

Then this molecule:
For "O=C(O)Cn1c2c(c3cc(F)ccc31)CN(C(=O)Cc1c[nH]c3ccccc13)CC2" , is the recorded IC50 below the cut-off of 0.06 µM?
condition met
